target: full length active recombinant SYK enzyme (Homo sapiens); construct: full length active recombinant SYK enzyme (Millipore, Calif.); assay: Inhibition of Syk tyrosine phosphorylation activity (LANCE TR-FRET kinase assay); details: activity in the Syk assays, class symbols
Quick reference for IC50 among some compounds

NC(=O)c1ncc(N[C@@H]2CCCC[C@@H]2N)nc1Nc1ccc(C(=O)N2CC(F)(F)C2)nc1: 1 to 10 nM

Query string: Entry NC(=O)c1ncc(N[C@@H]2CCCC[C@@H]2N)nc1Nc1cncs1 has what IC50?
Result string: > 1000 nM

Query string: Entry CC(C)[C@@H](Nc1cnc(C(N)=O)c(Nc2ccc3cnccc3c2)n1)C(N)=O has what IC50?
Result string: 1 to 10 nM

----------
Quick reference for IC50 among some compounds
molecular target: full length active recombinant SYK enzyme (Homo sapiens); construct: full length active recombinant SYK enzyme (Millipore, Calif.); experiment: Inhibition of Syk tyrosine phosphorylation activity (LANCE TR-FRET kinase assay); settings: activity in the Syk assays, class symbols

Examples from the recorded data:
CC[C@@H](Nc1cnc(C(N)=O)c(Nc2ccc(-c3ccncc3)cc2)n1)C(N)=O [Example 28]: 1 to 10 nM
CC[C@@H](Nc1cnc(C(N)=O)c(Nc2cnc3ccccc3c2)n1)C(N)=O [Example 73]: 1 to 10 nM
Cc1cncc(Nc2nc(N[C@H](CC3CC3)C(N)=O)cnc2C(N)=O)c1 [Example 99]: 1 to 10 nM

Shift focus to the following entry.
Query string: Entry Cc1cc(Nc2nc(N[C@@H]3CCCC(F)(F)[C@@H]3N)cnc2C(N)=O)sn1 [Example 23] has what IC50?
Result string: 10 to 100 nM

----------
target: full length active recombinant SYK enzyme (Homo sapiens, UniProt P43405); construct: full length active recombinant SYK enzyme (Millipore, Calif.); assay: Inhibition of Syk tyrosine phosphorylation activity (LANCE TR-FRET kinase assay); conditions: activity in the Syk assays, class symbols
Quick reference for IC50 among some compounds

Cn1ccc2c(Nc3nc(N[C@@H]4CCCC(F)(F)[C@@H]4N)cnc3C(N)=O)cccc21 [Example 392]: 1 to 10 nM

Query string: Notebook entry, full length active recombinant SYK enzyme (Homo sapiens, UniProt P43405) assay: IC50 of CC[C@@H](Nc1cnc(C(N)=O)c(Nc2cnn(-c3ccccc3)c2)n1)C(N)=O [Example 173] = ?
Result string: 10 to 100 nM

Query string: Notebook entry, full length active recombinant SYK enzyme (Homo sapiens, UniProt P43405) assay: IC50 of NC(=O)c1ncc(N[C@H](CC(F)F)C(N)=O)nc1Nc1cnc2cccnc2c1 [Example 127] = ?
Result string: 1 to 10 nM

Query string: Notebook entry, full length active recombinant SYK enzyme (Homo sapiens, UniProt P43405) assay: IC50 of COc1ccc(Nc2nc(N[C@@H]3CCCC(F)(F)[C@@H]3N)cnc2C(N)=O)cc1 [Example 24] = ?
Result string: 10 to 100 nM

----------
Quick reference for pIC50 among some compounds
biological target: full length active recombinant SYK enzyme (Homo sapiens); construct: full length active recombinant SYK enzyme (Millipore, Calif.); experiment: Inhibition of Syk tyrosine phosphorylation activity (LANCE TR-FRET kinase assay); conditions: activity in the Syk assays, class symbols
pIC50: −log10 of the molar value.

NC(=O)c1ncc(N[C@@H]2CCCC[C@@H]2N)nc1Nc1cnc2ncccc2c1: 8.00 to 9.00
COc1ccc(Nc2nc(N[C@@H]3CCCC(F)(F)[C@@H]3N)cnc2C(N)=O)cn1: 6.00 to 7.00
CC(C)(C)[C@@H](Nc1cnc(C(N)=O)c(Nc2cnc3cccnc3c2)n1)C(N)=O: 7.00 to 8.00

Query string: Entry NC(=O)c1ncc(NC2(C(N)=O)CC2)nc1Nc1cnc2ccc(F)cc2c1 has what pIC50?
Result string: 8.00 to 9.00

Query string: Entry CC[C@@H](Nc1cnc(C(N)=O)c(Nc2cnc3cc(F)ccc3c2)n1)C(N)=O has what pIC50?
Result string: 8.00 to 9.00

Query string: Entry CC[C@@H](Nc1cnc(C(N)=O)c(Nc2cnc(OC)c(C)c2)n1)C(N)=O has what pIC50?
Result string: 7.00 to 8.00

Query string: Entry NC(=O)c1ncc(N[C@@H]2CCCC[C@@H]2N)nc1Nc1cnn(C2CC2)c1 has what pIC50?
Result string: 7.00 to 8.00
